Just for reference, ChEMBL document CHEMBL1201862 is where these values come from.

# Test system: SNB-75
# Assay name: NCI tumour cell line growth inhibition, 48 h
Active and inactive are the calls of the source. Cut-off read from the data, not from the text of the source: active = GI50 up to about 1.1 µM and inactive = higher.
Select the correct class. Options are class 1 for active, class 0 for inactive and nothing else.

Q: Per the assay record, what outcome was assigned to CCOc1cc(C2SCC(=O)N2c2ccc3c(c2)Oc2c(Cl)c4c(c(Cl)c2=N3)Oc2cc(N3C(=O)CSC3c3ccc(O)c(OCC)c3)ccc2N=4)ccc1O (stereo not drawn) ?
Ans: class 0

Q: In this assay, the call recorded for "COc1ccc2nc3cc(Cl)ccc3c(NCCCCCC(=O)NC(COc3ccc4ccc5cccnc5c4n3)COc3ccc4ccc5cccnc5c4n3)c2c1" was what?
Ans: class 0

Q: Status in this test for "Cc1ccc(NC(=O)CCC(CC(=O)C(C)(C)C)=NNC(=O)C(=O)NN)cc1C" ?
Ans: class 0

Q: Field: outcome | Entry: COC(=O)C1=C(C)NC(C)=C([N+](=O)[O-])C1c1cccc(NO)c1 (stereo not drawn)
Ans: class 0

Q: # outcome recorded in this test, key = "O=C(c1ccco1)N(C(=S)N1CCN(c2ccccc2)CC1)c1ccccc1"
Ans: class 0

Q: Tell me the recorded outcome of this test for COC(=O)C1=Cc2cc(OC)c(OC)cc2[C@H](c2ccc(OC)c(OC)c2)C1C(=O)OC (stereo partly drawn) .
Ans: class 0

Further cases:
Q: // return assay outcome for "CCSC1=N/C(=C\c2ccco2)C(Cl)=N1"
Ans: class 0

Q: Give the logged outcome of this assay for the following molecule: "CS/C(=N\C#N)S/C=C/C(=O)c1ccc(Cl)cc1"
Ans: class 0

Q: What call does the record list for COc1cc(C2c3cc4c(cc3OC(NC3CCCCC3)C2C)OCO4)cc(OC)c1OC (stereo not drawn) ?
Ans: class 1

Q: Each molecule tested received a call. Report the one for O=c1cc(O)c2ccccc2o1 [4-HYDROXYCOUMARINS] .
Ans: class 0

----------
# System: SNB-75
# Assay name: NCI tumour cell line growth inhibition, 48 h
The source made the active and inactive calls. No stated cut-off is given here; in the data, active = GI50 up to about 1.1 µM and inactive = higher.
Give your call using only these classes: active, inactive

Completed entries (count: 3):
Q: In this assay, the call recorded for "Cc1ccc(/N=N/c2ccc(N(CCC#N)CCC#N)cc2C)c(Br)c1" was what?
Ans: inactive

Q: Look up the recorded call for "Cc1c2c(cc3c1[nH]c1ccccc13)C(c1ccc(Cl)cc1)=NCC2" in this test.
Ans: active

Q: I would be grateful if you could indicate the recorded call for O=C1C2c3[nH]c4ccccc4c3[C@@H]3CCCCC3C2C(=O)N1c1ccccc1 (some centres undefined) .
Ans: inactive

Here is the next item to consider.
Q: What did this assay record as the result for COc1ccc(C2CC(c3c(O)ccc4ccccc34)=NN2c2ccc([N+](=O)[O-])cc2[N+](=O)[O-])cc1OC (centres undefined) ?
Ans: inactive

----------
# Test system: NCI-H460
# Assay name: NCI tumour cell line growth inhibition, 48 h
Calls of active or inactive are those of the source. Rule as the data show it: active = GI50 up to about 1.1 µM and inactive = higher.
Please state which outcome applies, choosing from T = active, F = inactive

Q: What did the test return for CCN1CC2=C(OC(N)=C(C#N)C2c2ccc(Cl)cc2)/C(=C/c2ccc(Cl)cc2)C1 (stereo not drawn) ?
Ans: F

More entries:
Q: How did this test come out for "O=C(NC1CCCCC1)NC12CC3CC(CC(F)(C3)C1)C2" ?
Ans: F

Q: Status in this test for "Cc1nc(N)nc(N)c1CCCCc1ccc(N)cc1" ?
Ans: T

Q: Just curious, what result did "CCOC(=O)c1sc2c(c1O)c(=O)n(-c1ccccc1)c(=S)n2-c1ccccc1" get here?
Ans: F

Q: Recorded call for O=C1CC(=O)NC(NN2C(=O)CSC2c2ccccc2)=N1 (stereo not drawn) ?
Ans: F

Q: Could you please tell me the result logged for CCO[C@]12C[C@H](OC)[C@@]3(O)CC(C1[C@H]3OCc1ccccc1)C13C4C2[C@H](OC)C1[C@](COC)(CN4CC)[C@H](O)C[C@@H]3OC (stereo partly drawn) in this assay?
Ans: F

Q: Which outcome was entered for the molecule "CC(C)CNc1nc2ncnc(N)c2[nH]1" in this test?
Ans: F

Q: # fetch the recorded call for "COc1cccc(/C=C2/S/C(=N/Nc3nc(C)c(C(C)=O)s3)NC2=O)c1O" here
Ans: F

Q: Hello, I am checking results. What call was entered for "COc1cc2c(cc1OC)C(=O)N(NC1=NCCN1)C2=O" ?
Ans: F

Q: What did this assay record as the result for "Cc1cccc(-c2nc3ccc([N+](=O)[O-])cc3c(=O)o2)c1" ?
Ans: F
